# tgt: UniProtKB Q38C91
# Sequence (Q38C91 entry or part of it): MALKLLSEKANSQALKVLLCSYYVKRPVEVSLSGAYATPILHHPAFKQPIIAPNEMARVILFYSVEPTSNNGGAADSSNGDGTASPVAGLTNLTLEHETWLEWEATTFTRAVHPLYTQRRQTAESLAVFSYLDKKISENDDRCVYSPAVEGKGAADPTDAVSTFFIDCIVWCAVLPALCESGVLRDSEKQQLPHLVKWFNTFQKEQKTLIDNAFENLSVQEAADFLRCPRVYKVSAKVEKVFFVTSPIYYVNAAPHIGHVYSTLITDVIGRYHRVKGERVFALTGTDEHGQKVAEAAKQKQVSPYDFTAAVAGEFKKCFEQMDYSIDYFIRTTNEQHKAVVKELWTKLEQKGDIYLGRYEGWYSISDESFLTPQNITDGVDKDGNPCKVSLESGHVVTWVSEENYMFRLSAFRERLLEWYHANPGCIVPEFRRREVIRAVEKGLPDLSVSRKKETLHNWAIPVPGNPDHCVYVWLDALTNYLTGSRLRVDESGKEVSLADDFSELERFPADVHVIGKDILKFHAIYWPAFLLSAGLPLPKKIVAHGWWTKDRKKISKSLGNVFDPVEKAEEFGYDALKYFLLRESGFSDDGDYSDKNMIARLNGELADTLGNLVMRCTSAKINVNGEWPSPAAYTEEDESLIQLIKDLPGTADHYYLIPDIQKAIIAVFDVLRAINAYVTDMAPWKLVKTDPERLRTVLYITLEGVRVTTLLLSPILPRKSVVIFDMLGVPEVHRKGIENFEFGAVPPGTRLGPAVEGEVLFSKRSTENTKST
Please note: IC50 exactly at 400 nM is n. Only values below 400 nM get y.

Please review the following examples before continuing.
compound: COc1c(Cl)cc(Cl)cc1CN[C@H]1CCCN(c2nc3nc(Cl)ccc3[nH]2)C1
class_assignment: y
--
compound: CN(CCNCc1cc(Cl)cc(Cl)c1)c1nc2nc(F)ccc2[nH]1
class_assignment: y
--
compound: N[C@@H](CC(=O)NCc1nc2ccccc2[nH]1)Cc1ccc(F)cc1
class_assignment: n
--
compound: Fc1ccc2[nH]c(C3CCCC(NCc4cc(Cl)cc(Cl)c4)C3)nc2n1 (stereo not drawn)
class_assignment: n
--
compound: CC(Cc1nc2cc3ccccc3cc2[nH]1)NCc1cc(Cl)cc(Cl)c1 (stereo not drawn)
class_assignment: n

Query: Criterion: IC50 strictly below 400 nM. Is it met by Clc1ccc(CNC2CCCC(c3nc4nc(Cl)ccc4[nH]3)C2)c(Cl)c1 (stereo not drawn) ?
Reply: y

Query: Bench note: check whether `O=C(Cc1nc2cc(Cl)cc(Cl)c2[nH]1)NCc1nc2ccccc2[nH]1` shows IC50 below 400 nM
Reply: n

Query: Determine if `CC(=O)N(Cc1cc(Cl)cc(Cl)c1)[C@@H]1CCC[C@H](c2nc3nc(Cl)ccc3[nH]2)C1` shows IC50 strictly lower than 400 nM.
Reply: n

Query: Would you kindly verify if IC50 of `Clc1cc(Cl)cc(CN2CCC[C@H](c3nc4cc(Cl)ccc4[nH]3)C2)c1` is strictly less than 400 nM?
Reply: n

Query: In the record for `CC(=O)N(CCCc1nc2ccc(Cl)nc2[nH]1)Cc1cc(Cl)cc(Cl)c1` , is IC50 less than 400 nM?
Reply: y

Query: Hi there! Is IC50 for `Clc1cc(Cl)cc(CNCCNc2nc3ncc(Cl)cc3[nH]2)c1` below 400 nM, do you know?
Reply: y

Query: API: query returns whether the compound falls strictly under 400 nM in IC50. Query: O=C(Cc1cc(Cl)cc(Cl)c1)N1CCCC(c2nc3cc(Cl)c(Cl)cc3[nH]2)C1 (stereo not drawn)
Reply: n
